- experimental details: Volume of distribution at steady state in C57BL6/J mouse at 5 mg/kg, iv measured upto 24 hrs by LC-MS/MS analysis
- Type: ADME, organism-based
- condition parameters: in vivo, read-out: Vdss

- smiles text: "Cc1ccc(S(=O)(=O)n2cc(Cc3cc(C)c(O)c(C)c3)c3ccccc32)cc1"
  Vd [L/kg]: 4.59

* * *

- experimental details: AUC (0 to 8hrs) in C57BL6/J mouse at 5 mg/kg, ip measured upto 24 hrs by LC-MS/MS analysis
- Type: ADME, organism-based
- Parameters: dose 5 mg/kg, time < 24 hrs, route ip
- condition parameters: in vivo
measure: AUC(0-t) at 24 h (ng·h/mL)

- smiles text: "Cc1ccc(S(=O)(=O)n2cc(Cc3cc(C)c(O)c(C)c3)c3ccccc32)cc1"
  val: 340

* * *

- experimental details: MRT (0 to 8hrs) in C57BL6/J mouse at 5 mg/kg, ip measured upto 24 hrs by LC-MS/MS analysis
- Format: ADME, organism-based
- condition parameters: in vivo

- smiles text: "Cc1ccc(S(=O)(=O)n2cc(Cc3cc(C)c(O)c(C)c3)c3ccccc32)cc1"
  MRT last at 24 h: "2.25 h"

* * *

- experimental details: Cmax in C57BL6/J mouse at 5 mg/kg, iv measured upto 24 hrs by LC-MS/MS analysis
- Type: ADME, organism-based
- Design: dose 5 mg/kg, time < 24 hrs, route iv
- condition parameters: in vivo

- smiles text: "Cc1ccc(S(=O)(=O)n2cc(Cc3cc(C)c(O)c(C)c3)c3ccccc32)cc1"
  units label: "ng/mL"
  Cmax: 1980

* * *

- experimental details: MRT (0 to infinity) in C57BL6/J mouse at 5 mg/kg, iv measured upto 24 hrs by LC-MS/MS analysis
- Assay type: ADME, organism-based
- condition parameters: in vivo
measure: MRT inf (min)

- smiles text: "Cc1ccc(S(=O)(=O)n2cc(Cc3cc(C)c(O)c(C)c3)c3ccccc32)cc1"
  val: 50.4

* * *

- Tested on: GL261
- experimental details: Anti-proliferative activity against mouse GL261 cells assessed as cell viability incubated for 2 hrs by CCK8 assay
- Format: functional, cell-based
- condition parameters: GL261, 2 h
Listed molecules paired with reported IC50

- smiles text: "CC(=O)n1cc(Cc2cc(C)c(O)c(C)c2)c2ccccc21"
  target of assay: "GL261"
  IC50, µM: 25.4
- smiles text: "Cc1ccc(S(=O)(=O)n2cc(Cc3cc(C(C)(C)C)c(O)c(C(C)(C)C)c3)c3ccccc32)cc1"
  target of assay: "GL261"
  IC50, µM: 100
- smiles text: "COc1ccc2c(Cc3cc(C)c(O)c(C)c3)cn(S(=O)(=O)c3ccc(C)cc3)c2c1"
  target of assay: "GL261"
  IC50, µM: 38.5
- smiles text: "Cc1cc(Cc2cn(C(=O)c3ccc(Cl)cc3)c3ccccc23)cc(C)c1O"
  target of assay: "GL261"
  IC50, µM: 100
- smiles text: "Cc1cc(Cc2cn(S(=O)(=O)c3ccc([N+](=O)[O-])cc3)c3ccccc23)cc(C)c1O"
  target of assay: "GL261"
  IC50, µM: 100
- smiles text: "Cc1ccc(S(=O)(=O)n2cc(Cc3cc(C)c(O)c(C)c3)c3cc(F)ccc32)cc1"
  target of assay: "GL261"
  IC50, µM: 100
- smiles text: "Cc1cc(Cc2cn(C(=O)c3ccnc4ccccc34)c3ccccc23)cc(C)c1O"
  target of assay: "GL261"
  IC50, µM: 11.4
- smiles text: "CCn1cc(Cc2cc(C)c(O)c(C)c2)c2ccccc21"
  target of assay: "GL261"
  IC50, µM: 100
- smiles text: "Cc1cc(Cc2cn(C)c3ccccc23)cc(C)c1O"
  target of assay: "GL261"
  IC50, µM: 12.7
- smiles text: "Cc1cc(Cc2c[nH]c3ccccc23)cc(C)c1O"
  target of assay: "GL261"
  IC50, µM: 12.8

* * *

- experimental details: MRT (0 to 8hrs) in C57BL6/J mouse at 5 mg/kg, iv measured upto 24 hrs by LC-MS/MS analysis
- Type: ADME, organism-based
- condition parameters: in vivo

- smiles text: "Cc1ccc(S(=O)(=O)n2cc(Cc3cc(C)c(O)c(C)c3)c3ccccc32)cc1"
  units label: "min"
  MRT last at 24 h: 37.8

* * *

- System: GL261
- experimental details: Anti-proliferative activity against mouse GL261 cells assessed as cell viability incubated for 2 hrs by CCK8 assay
- Format: functional, cell-based
- condition parameters: GL261, 2 h
measure: log10 IC50 (log10 of the value in µM)

- smiles text: "Cc1cc(Cc2cn(Cc3ccc(Cl)cc3)c3ccccc23)cc(C)c1O"
  log10 IC50: 1.74
- smiles text: "Cc1ccc(S(=O)(=O)n2cc(Cc3cc(C)c(O)c(C)c3)c3cc([N+](=O)[O-])ccc32)cc1"
  log10 IC50: 1.29
- smiles text: "Cc1ccc(S(=O)(=O)n2cc(Cc3cc(C(C)C)c(O)c(C(C)C)c3)c3ccccc32)cc1"
  log10 IC50: 1.96
- smiles text: "Cc1cc(Cc2cn(S(=O)(=O)c3ccc(Br)cc3)c3ccccc23)cc(C)c1O"
  log10 IC50: 2.00
- smiles text: "Cc1cc(Cc2cn(C(=O)c3ccc([N+](=O)[O-])cc3)c3ccccc23)cc(C)c1O"
  log10 IC50: 2.00
- smiles text: "C[C@@H](Oc1cc(-c2cnn(C3CCNCC3)c2)cnc1N)c1c(Cl)ccc(F)c1Cl"
  log10 IC50: 0.54
- smiles text: "CC(C)c1cccc(C(C)C)c1O"
  log10 IC50: 2.00
- smiles text: "Cc1ccc(S(=O)(=O)n2cc(Cc3cc(C)c(O)c(C)c3)c3cc(C#N)ccc32)cc1"
  log10 IC50: 0.98
- smiles text: "Cc1cc(Cc2cn(C(=O)c3ccc(N4CCN(C)CC4)cc3)c3ccccc23)cc(C)c1O"
  log10 IC50: 0.54
- smiles text: "COc1ccc2c(c1)c(Cc1cc(C)c(O)c(C)c1)cn2S(=O)(=O)c1ccc(C)cc1"
  log10 IC50: 1.75
- smiles text: "Cc1cc(Cc2c[nH]c3ccc(F)cc23)cc(C)c1O"
  log10 IC50: 1.28
